Attribution: PubChem BioAssay (NCATS)

- method_description: Quantitative High-Throughput drug screen in 47 multiple myeloma cell lines against the NCATS MIPE library collection: NCIH929_DSMZ cell viability assay (AID 1918978); further: nearly all actives have a fitted effect of over 35% in size
- condition_summary: NCI-H929 myeloma viability, CellTiter-Glo ATP, 48 h; series mostly up to 45.8 µM
Inconclusive results are not listed. Calls of active or inactive are those of the source. The call rests on the fitted dose curve; in most records, active means well fitted cell-killing curve with a large enough effect; inconclusive means small, poorly fitted or top-dose-only effect; inactive means no such curve, though single readings can be large or run the other way.
Could you please pick one outcome from this set? yes (active), no (inactive)

Here's what some known entries look like.
Assay result, entry `Nc1ccc(S(=O)(=O)Nc2ccccn2)cc1` — outcome? no

Assay result, entry `CNCC[C@H](Oc1cccc2ccccc12)c1cccs1` — outcome? yes

New cases:
Assay result, entry `NC(=O)c1ccc2[nH]ccc2c1` — outcome? no

Assay result, entry `CCOC(=O)[C@H](CCc1ccccc1)N[C@H]1CS[C@H](c2cccs2)CN(CC(=O)O)C1=O` — outcome? yes

====

- method_description: qHTS of pediatric cancer cell lines to identify multiple opportunities for drug repurposing: Primary screen for NB-EBc1 cells (AID 1347095)
- condition_summary: NB-EBc1 neuroblastoma viability, CellTiter-Glo luminescence, 48 h; series mostly up to 46 µM
Records with an inconclusive call do not appear. Activity calls are given as the source filed them. Calls follow the shape of the dose curve; as a rule, active = well fitted cell-killing curve with a large enough effect; inconclusive = small, poorly fitted or top-dose-only effect; inactive = no such curve, though single readings can be large or run the other way.
Could you please pick one outcome from this set? YES = active, NO = inactive

Here's what some known entries look like.
Assay result, entry `O[C@@H](CNC[C@H](O)[C@H]1CCc2cc(F)ccc2O1)[C@@H]1CCc2cc(F)ccc2O1` — outcome? YES

Assay result, entry `CC(=O)[C@H]1CC[C@H]2[C@@H]3CC=C4C[C@@H](O)CC[C@]4(C)[C@H]3CC[C@]12C` — outcome? NO

Assay result, entry `Nc1ccc(S(=O)(=O)Nc2ccccn2)cc1` — outcome? NO

Now for another entry.
Assay result, entry `CNCC[C@H](Oc1cccc2ccccc12)c1cccs1` — outcome? NO

====

- Tested on: ECU
- method_description: qHTS profiling for inhibitors of Plasmodium falciparum proliferation (AID 504749); further: nearly all actives have a fitted effect of over 60% in size
- condition_summary: P. falciparum in erythrocytes, SYBR Green DNA, 72 h; series mostly up to 28.7 µM
- Protocol: NIH National Institute of Allergy and Infectious Diseases [NIAID] NIH Chemical Genomics Center [NCGC] […] Because mature erythrocytes lack DNA, only Plasmodium-derived DNA is detected. NCGC Assay Protocol Summary: The SYBR Green viability assay was adapted from a method described previously (Plouffe et al., 2008). […] The following morning, fluorescence intensity at 485(14) nm excitation and 535(25) nm emission wavelengths was measured on an EnVision (Perkin Elmer) plate reader. […]
Results filed as inconclusive are left out. Calls of active or inactive are those of the source. Calls come from the whole dose curve; as a rule, active = well fitted inhibition curve with a large enough effect; inconclusive = small, poorly fitted or top-dose-only effect; inactive = flat fitted curve, though single readings scatter.
Could you please pick one outcome from this set? active, inactive

Here's what some known entries look like.
Assay result, entry `CCCc1cc(C(N)=S)ccn1` — outcome? inactive

Assay result, entry `Nc1[nH]c(=O)ncc1F` — outcome? inactive

New cases:
Assay result, entry `C[C@@H](NCCCc1cccc(C(F)(F)F)c1)c1cccc2ccccc12` — outcome? active

Assay result, entry `CN1CCN(c2c(F)cc3c(=O)c(C(=O)O)cn4c3c2OCN4C)CC1` — outcome? inactive

Assay result, entry `CNNCc1ccc(C(=O)NC(C)C)cc1` — outcome? inactive

Assay result, entry `COc1cc(NS(=O)(=O)c2ccc(N)cc2)nc(OC)n1` — outcome? inactive

Assay result, entry `NCCCC(O)(P(=O)(O)O)P(=O)(O)O` — outcome? inactive

Assay result, entry `CC1=CC(=O)c2ccccc2C1=O` — outcome? inactive

Assay result, entry `CNCC[C@H](Oc1cccc2ccccc12)c1cccs1` — outcome? active

====

- method_description: Quantitative High-Throughput drug screen in 47 multiple myeloma cell lines against the NCATS MIPE library collection: LP1_DSMZ cell viability assay (AID 1918982); further: nearly all actives have a fitted effect of over 35% in size
- condition_summary: LP1 myeloma viability, CellTiter-Glo ATP luminescence, 48 h; series mostly up to 45.8 µM
Records with an inconclusive call do not appear. Calls of active or inactive are those of the source. Calls come from the whole dose curve; as a rule, active = well fitted cell-killing curve with a large enough effect; inconclusive = small, poorly fitted or top-dose-only effect, or effect the other way; inactive = no such curve, though single readings can be large or run the other way.
Could you please pick one outcome from this set? True = active, False = inactive

Assay result, entry CCOc1cc(N)c(Cl)cc1C(=O)NCC1CN(Cc2ccc(F)cc2)CCO1 (centres undefined) — outcome? False

New cases:
Assay result, entry `Cn1nnc2c(C(N)=O)ncn2c1=O` — outcome? False

====

- Tested on: Tov-21-G
- method_description: Primary qHTS to identify gynecologic anti-cancer compounds using libraries of approved drugs and bioactive compounds (AID 1345084); further: nearly all actives have a fitted effect of over 55% in size
- condition_summary: Gynecologic cancer cell panel viability, ATPlite luminescence, 48 h; series mostly up to 57.5 µM
Inconclusive results are not listed. The source made the active and inactive calls. Calls follow the shape of the dose curve; as a rule, active = well fitted cell-killing curve with a large enough effect; inconclusive = small, poorly fitted or top-dose-only effect, or effect the other way; inactive = flat fitted curve, though single readings scatter.
Could you please pick one outcome from this set? TRUE for active, FALSE for inactive

Assay result, entry `C[C@@H]1C[C@H]2[C@@H]3CCC4=CC(=O)C=C[C@]4(C)[C@@]3(Cl)[C@@H](O)C[C@]2(C)[C@@]1(OC(=O)c1ccco1)C(=O)CCl` — outcome? FALSE

New cases:
Assay result, entry `CC[C@H](C)C(=O)O[C@H]1C[C@@H](C)C=C2C=C[C@H](C)[C@H](CC[C@@H]3C[C@@H](O)CC(=O)O3)[C@H]21` — outcome? FALSE

Assay result, entry Cc1oc(=O)oc1CN1CCN(c2cc3c(cc2F)c(=O)c(C(=O)O)c2n3C(C)S2)CC1 (stereo not given) — outcome? FALSE

Assay result, entry `CC(C)OC(=O)OCOP(=O)(CO[C@H](C)Cn1cnc2c(N)ncnc21)OCOC(=O)OC(C)C` — outcome? FALSE

Assay result, entry `CCOC(=O)[C@H](CCc1ccccc1)N[C@H]1CS[C@H](c2cccs2)CN(CC(=O)O)C1=O` — outcome? FALSE

Assay result, entry `NCCCC(O)(P(=O)(O)O)P(=O)(O)O` — outcome? FALSE

Assay result, entry NS(=O)(=O)c1cc2c(cc1Cl)NC(C(Cl)Cl)NS2(=O)=O (stereo not given) — outcome? FALSE

====

- method_description: Quantitative High-Throughput drug screen in 47 multiple myeloma cell lines against the NCATS MIPE library collection: KMS12BM_JCRB cell viability assay (AID 1918971); further: nearly all actives have a fitted effect of over 35% in size
- condition_summary: KMS12BM myeloma viability, CellTiter-Glo ATP, 48 h; series mostly up to 45.8 µM
Results filed as inconclusive are left out. Calls of active or inactive are those of the source. Calls come from the whole dose curve; as a rule, active = well fitted cell-killing curve with a large enough effect; inconclusive = small, poorly fitted or top-dose-only effect, or effect the other way; inactive = no such curve, though single readings can be large or run the other way.
Could you please pick one outcome from this set? Yes (active), No (inactive)

Here's what some known entries look like.
Assay result, entry `COc1cc(NS(=O)(=O)c2ccc(N)cc2)nc(OC)n1` — outcome? No

Assay result, entry `COC(=O)Nc1nc2ccc(Sc3ccccc3)cc2[nH]1` — outcome? Yes

Assay result, entry `COc1ccc2c(c1)c(CC(=O)OCC(=O)O)c(C)n2C(=O)c1ccc(Cl)cc1` — outcome? No

Assay result, entry CC(C(=O)O)c1ccc2c(c1)CC(=O)c1ccccc1S2 (stereo not given) — outcome? No

New cases:
Assay result, entry `N=C(N)c1ccc(OCCCCCOc2ccc(C(=N)N)cc2)cc1` — outcome? Yes

Assay result, entry `Cc1ccc(S(=O)(=O)N[C@@H](Cc2ccccc2)C(=O)CCl)cc1` — outcome? Yes

Assay result, entry `Oc1c(Cl)cc(Cl)c2cccnc12` — outcome? Yes

Assay result, entry `CCn1cc(C(=O)O)c(=O)c2cc(F)c(N3CCN(C)CC3)cc21` — outcome? Yes

Assay result, entry `COc1nc(N)nc2c1ncn2[C@@H]1O[C@H](CO)[C@@H](O)[C@@H]1O` — outcome? No

Assay result, entry `CCOC(=O)[C@H](CCc1ccccc1)N[C@H]1CS[C@H](c2cccs2)CN(CC(=O)O)C1=O` — outcome? Yes

====

- method_description: Quantitative High-Throughput drug screen in 47 multiple myeloma cell lines against the NCATS MIPE library collection: KMS28BM_JCRB cell viability assay (AID 1919874); further: nearly all actives have a fitted effect of over 35% in size; further: potency means the concentration at half of the fitted maximal effect
- condition_summary: CellTiter-Glo ATP, 48 h; series mostly up to 45.8 µM
Inconclusive results are not listed. The source made the active and inactive calls. The call rests on the fitted dose curve; in most records, active means well fitted cell-killing curve with a large enough effect; inconclusive means small, poorly fitted or top-dose-only effect, or effect the other way; inactive means no such curve, though single readings can be large or run the other way.
assay_endpoint: Potency

Give the measured Potency of `CC(C)(C)NC(=O)[C@H]1CC[C@H]2[C@@H]3CC[C@H]4NC(=O)C=C[C@]4(C)[C@H]3CC[C@]12C` . inactive

Give the measured Potency of `NNC(=O)c1ccncc1` . inactive

Give the measured Potency of CC(N)C12CC3CC(CC(C3)C1)C2 (configuration not stated) . inactive

Give the measured Potency of `O=NN(CCCl)C(=O)NC1CCCCC1` . inactive

Give the measured Potency of CC(C)C1CCC(C(=O)N[C@H](Cc2ccccc2)C(=O)O)CC1 (some centres not stated) . inactive

New cases:
Give the measured Potency of NS(=O)(=O)c1cc2c(cc1Cl)NC(C(Cl)Cl)NS2(=O)=O (configuration not stated) . inactive

Give the measured Potency of `CC[C@H](NC(C)C)[C@H](O)c1ccc(O)c2[nH]c(=O)ccc12` . inactive

Give the measured Potency of `CC(C)Cn1cnc2c(N)nc3ccccc3c21` . 14.8 µM (active)

Give the measured Potency of `Cc1cccc(N(C)C(=S)Oc2ccc3ccccc3c2)c1` . inactive

Give the measured Potency of `N=C(N)c1ccc(OCCCCCOc2ccc(C(=N)N)cc2)cc1` . 5.9 µM (active)

Give the measured Potency of Cc1oc(=O)oc1CN1CCN(c2cc3c(cc2F)c(=O)c(C(=O)O)c2n3C(C)S2)CC1 (configuration not stated) . inactive

Give the measured Potency of `O=C(O)c1cn(C2CC2)c2cc(N3CCNCC3)c(F)cc2c1=O` . inactive
